Source: PubChem BioAssay AID248

Readings of T/C for the listed compounds
System: L1210 leukemia ip in BDF1 mice, survival T/C
Assay: NCI In Vivo Anticancer Drug Screen. Data for tumor model L1210 Leukemia (intraperitoneal) in B6D2F1 (BDF1) mice
Settings: endpoint: mean survival time; dose: 100.0 mg/kg/injection; schedule: Q04DX003 (ip); vehicle: saline; higher = longer survival
Toxic doses and inconclusive results are not listed.

Here is how some compounds turned out for T/C.
smiles_structure=OCCN1CCC(CCCC2CCNCC2)CC1 property_name=T/C value="108 % of control"
smiles_structure=O=C1NC(=O)C(c2ccc(Cl)cc2)(c2ccc(Cl)cc2)N1 property_name=T/C value="96 % of control"
smiles_structure=O=C(NCCO)NCCO property_name=T/C value="95 % of control"
smiles_structure=Cc1ccc(NC(=O)c2ccccc2Cl)cc1Cl property_name=T/C value="120 % of control"
smiles_structure=COc1ccc(CCN=Cc2ccc3c(c2)Cc2ccccc2-3)cc1OC property_name=T/C value="105 % of control"
smiles_structure=COC(=O)/C(C)=C\C=C(/C)C(=O)OC property_name=T/C value="100 % of control"

In the following, a different compound is considered.
Task: Lab request: please report T/C under test system L1210 leukemia ip in BDF1 mice, survival T/C for Cc1cc(Oc2ccc(Cl)cc2NC(=O)Nc2ccc(Cl)c(Cl)c2)c(S(=O)(=O)O)cc1Cl
Output: 97 % of control
